Listed next: entries and their corresponding Kd.
molecular target: HumRadA22; assay: FP
Numbered stars: 1 amine (or outer) side, 2 acyl side, 3 side chain; on linkers, the order of the positions; unused ones are H or OH. Bridge positions count the residues as written; N and C are the ends. Ends that are not written are not given here. DVP = divinylpyrimidine, c1nc(CC[*:1])cc(CC[*:2])n1
ENDPOINT: Kd (nM)

[[record]]
binder = "GCSGFSTASGKKLNVSTQACQKAVKLFSG (linker 2-20 via DVP (inferred)) [SP30, tag-free, stapled with DVP]"
value_measured = 13

[[record]]
binder = "GFSGFSTASGKKLNVSCQALQKACKLFSG (linker 17-24 via DVP) [SP24, tag-free, stapled with DVP]"
value_measured = 13

